target: TB27; assay: UV-Vis difference spectroscopy (Type I shift, ΔA ~390 minus ~420 nm) titration of Trp to 1.5 µM purified P450 in 25 mM Tris-HCl, pH 8.0, hyperbolic fit; at least three repeats.; conditions: n = 3
pKd: −log10 of the molar value.
assay-endpoint: pKd

1) N[C@@H](Cc1c[nH]c2ccccc12)C(=O)O: 4.79

* * *

target: TB24; test: UV-Vis difference spectroscopy (Type I shift, ΔA ~390 minus ~420 nm) titration of Trp to 1.5 µM purified P450 in 25 mM Tris-HCl, pH 8.0, hyperbolic fit; at least three repeats.; settings: n = 3
pKd: −log10 of the molar value.
assay-endpoint: pKd

1. N[C@@H](Cc1c[nH]c2ccccc12)C(=O)O: 4.83
